- Procedure Summary: chemical genetic growth profiling, strain panel (AID 1159580);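 note: tested at 20 µM; growth read once vehicle control cultures reached saturation at 30 °C; 1 = growth at the plate median or of vehicle wells; lower values mean less growth of the strain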
- Condition: S. cerevisiae deletion strains, growth OD, locus YGL253W, strain hxk2, hits give low values
The campaign covered roughly 5,500 compounds. About 2,000 (36%) were called active. Not shown: some 18% with an inconclusive outcome. Some of the results follow.

- Molecule: "COC(=O)N/N=C\\c1c[n+]([O-])c2ccccc2[n+]1[O-]"
  normalized growth: 0.988
- Molecule: "COC(=O)[C@H]1[C@H]2C[C@H]3c4[nH]c5cc(OC)ccc5c4CCN3C[C@H]2C[C@@H](OC(=O)c2cc(OC)c(OC)c(OC)c2)[C@@H]1OC"
  normalized growth: 1.02
- Molecule: "NC[C@@H]1O[C@H](O[C@@H]2[C@@H](CO)OC(O[C@@H]3[C@@H](O)[C@H](N)C[C@H](N)[C@H]3O[C@H]3O[C@H](CO)[C@@H](O)[C@H](O)[C@H]3N)[C@@H]2O)[C@H](N)[C@@H](O)[C@@H]1O (stereo partly drawn)"
  normalized growth: 0.988

###

Measured normalized growth values are reported for all entries that follow.
- Procedure Summary: chemical genetic growth profiling, strain panel (AID 1159580);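 note: tested at 20 µM; growth read once vehicle control cultures reached saturation at 30 °C; 1 = growth at the plate median or of vehicle wells; lower values mean less growth of the strain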
- Condition: S. cerevisiae deletion strains, growth OD, locus YFL009W, strain cdc4, hits give low values
The campaign covered roughly 5,500 compounds. About 2,000 (36%) were called active. Another 18% or so got no clear call; they are omitted. Some of the results follow.

- Compound: "OC(COCc1ccccc1)Cn1c2ccccc2c2ccccc21 (stereo unspecified)"
  normalized growth: 0.964
- Compound: "N/C(=N/OC(=O)Nc1cccc(C(F)(F)F)c1)c1ccc(OC(F)(F)F)cc1"
  normalized growth: 0.953
- Compound: "COc1ccc(N=C2SCC(c3ccc(C)cc3)=NN2CCO)cc1"
  normalized growth: 0.972
- Compound: "Cc1cc(-c2onc(C)c2C(=O)Sc2ccccc2)no1"
  normalized growth: 0.921
- Compound: "O=C(O/N=C1/CCCc2[nH]c3ccccc3c21)c1ccc(Cl)cc1Cl"
  normalized growth: 0.971
- Compound: "CC(C)(C)NC(=S)N/N=C\\c1cc(Br)c(O)c(Br)c1"
  normalized growth: 0.962
- Compound: "Cc1cc(Br)c(O)c(/C=N\\NC(=S)NC(C)(C)C)c1"
  normalized growth: 0.981
- Compound: "N#Cc1ccc2[nH]cc(CCN(Cc3ccccc3)Cc3ccccc3)c2c1"
  normalized growth: 0.982
- Compound: "O=c1cc(CSc2ccc(Cl)cc2)c2ccc(O)cc2o1"
  normalized growth: 0.935
- Compound: "CCCCCCCCCCCCSc1ncn[nH]1"
  normalized growth: 0.971
- Compound: "O=C(Nc1ccccc1C(=O)O)OCC1c2ccccc2-c2ccccc21"
  normalized growth: 0.986

###

- Procedure Summary: chemical genetic growth profiling, strain panel (AID 1159580);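 note: tested at 20 µM; growth read once vehicle control cultures reached saturation at 30 °C; 1 = growth at the plate median or of vehicle wells; lower values mean less growth of the strain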
- Condition: S. cerevisiae deletion strains, growth OD, locus YLR262C, strain YPT6 (second series)
About 2,000 (36%) of roughly 5,500 compounds were called active. About 18% were inconclusive and are not listed. Rule as the data show it: active = normalized growth mostly below about 0.91 (no sharp cut-off); inconclusive = no clear call, values can overlap the other calls; inactive = mostly above about 0.92. This is one part of the list.
Outcome codes: T (active), F (inactive)

- Compound: "COC(=O)CC1C(C)(C)C(OC(C)=O)[C@@H]2[C@@H](OC(C)=O)[C@]34O[C@@]2(O)[C@]1(C)C3CC[C@]1(C)C4=CC(=O)O[C@H]1c1ccoc1 (stereo not given in full)"
  Assigned Class: "F"
- Compound: "CCc1ccc2c(O)c3c(cc2c1C(=O)OC)C(=O)c1c(O)ccc(O)c1C3=O"
  Assigned Class: "F"
- Compound: "CNC[C@H](O)c1cccc(O)c1"
  Assigned Class: "F"
- Compound: "Cc1c(OCC(F)(F)F)ccnc1CS(=O)c1nc2ccccc2[nH]1 (stereo not given)"
  Assigned Class: "F"
- Compound: "CC(C)c1cccc(O)c(=O)c1"
  Assigned Class: "T"
